# System: Trypanosoma cruzi
# Protocol summary: Antitrypanosomal activity against Trypanosoma cruzi Tulahuen strain C2C4 trypomastigotes infected in rat L6 cells incubated for 96 hrs by photometric method based assay
# Assay type: functional, organism-based
# Applied conditions: Tulahuen strain C2C4, L6, 96 h
Readout kind: pEC50
In plain terms, pEC50 is the concentration in mol/L turned into minus its base-10 logarithm.

- CCC[C@H]1CC[C@H](n2c(=O)[nH]c3ccc(NC(C)=O)cc3c2=O)CC1: 7.82
- O=c1[nH]c2ccc(-c3cccnc3)cc2c(=O)n1CCC1CCCCC1: 5.72
- CC(C)[C@H]1CC[C@H](n2c(=O)[nH]c3ncc(N)cc3c2=O)CC1: 6.92
- N#CCc1ccc2[nH]c(=O)n(CCC3CCCCC3)c(=O)c2c1: 5.68
- CC[C@H]1CC[C@@H](n2c(=O)[nH]c3ccc(NC(C)=O)cc3c2=O)CC1: 7.07
- CC(=O)Nc1ccc2[nH]c(=O)n(CCC3CCCCC3)c(=O)c2c1: 6.14
- CC(=O)Nc1ccc2[nH]c(=O)n(C3CCC(C)(C)CC3)c(=O)c2c1: 6.74
- CC(=O)Nc1ccc2[nH]c(=O)n(CCCC(C)C)c(=O)c2c1: 5.40
- CC(=O)Nc1ccc2[nH]c(=O)n(CCc3ccccc3)c(=O)c2c1: 5.96
- CC(=O)Nc1ccc2[nH]c(=O)n(Cc3ccccc3)c(=O)c2c1: 4.77

Lookup result for CC(=O)Nc1ccc2[nH]c(=O)n(C3CCC(C(C)(C)C)C3)c(=O)c2c1 (racemic) ; measured pEC50: 7.70

Lookup result for CC(=O)Nc1ccc2[nH]c(=O)n([C@H]3CO[C@@H](C(C)(C)C)OC3)c(=O)c2c1 ; measured pEC50: 5.19

Lookup result for CC(C)(C)[C@H]1CC[C@H](n2c(=O)[nH]c3ncc(N)cc3c2=O)CC1 ; measured pEC50: 6.18

Lookup result for CC(=O)Nc1ccc2[nH]c(=O)n([C@H]3CC[C@H](OC(C)(C)C)CC3)c(=O)c2c1 ; measured pEC50: 5.46

Lookup result for CC(=O)Nc1ccc2[nH]c(=O)n([C@H](C)C3CCCCC3)c(=O)c2c1 ; measured pEC50: 5.66

====

log10(EC50) listing for selected compounds.
# Test system: L6
# Protocol summary: Cytotoxicity against rat L6 cells incubated for 70 hrs by resazurin dye based assay
# Format: cell-based
# Applied conditions: L6, 70 h
Please interpret these as log10 of EC50 where EC50 is in µM.

Example results:
- CC(=O)Nc1ccc2[nH]c(=O)n([C@H]3CC[C@@H](C(C)(C)C)CC3)c(=O)c2c1: 0.70
- CC(=O)Nc1ccc2[nH]c(=O)n(CCc3ccccc3)c(=O)c2c1: 2.14
- CC(C)(C)[C@H]1CC[C@H](n2c(=O)[nH]c3ncc(N)cc3c2=O)CC1: 1.80

Tested on L6, the item O=c1[nH]c2ccc(-c3cncnc3)cc2c(=O)n1CCC1CCCCC1 showed log10(EC50) equal to 2.10

Tested on L6, the item CC(=O)Nc1ccc2[nH]c(=O)n(C3CCCC3)c(=O)c2c1 showed log10(EC50) equal to 2.26

Tested on L6, the item CC(=O)Nc1ccc2[nH]c(=O)n([C@H]3CC[C@H](C(C)C)CC3)c(=O)c2c1 showed log10(EC50) equal to 0.58

Tested on L6, the item CC(=O)Nc1cnc2[nH]c(=O)n([C@H]3CC[C@H](C(C)C)CC3)c(=O)c2c1 showed log10(EC50) equal to 1.51

Tested on L6, the item CC(C)[C@H]1CC[C@H](n2c(=O)[nH]c3ncc(N)cc3c2=O)CC1 showed log10(EC50) equal to 1.66

Tested on L6, the item CC(=O)Nc1cnc2[nH]c(=O)n([C@H]3CC[C@@H](C(C)C)CC3)c(=O)c2c1 showed log10(EC50) equal to 1.20

Tested on L6, the item CC[C@H]1CC[C@H](n2c(=O)[nH]c3ncc(N)cc3c2=O)CC1 showed log10(EC50) equal to 1.71

Tested on L6, the item CC(=O)Nc1ccc2[nH]c(=O)n(CCC3=CCCCC3)c(=O)c2c1 showed log10(EC50) equal to 2.03

====

# System: Trypanosoma cruzi
# Protocol summary: Antitrypanosomal activity against Trypanosoma cruzi Tulahuen strain C2C4 trypomastigotes infected in rat L6 cells incubated for 96 hrs by photometric method based assay
# Type: functional, organism-based
# Applied conditions: Tulahuen strain C2C4, L6, 96 h
Readout kind: pEC50
In plain terms, pEC50 is the concentration in mol/L turned into minus its base-10 logarithm.

Example results:
• CC(C)[C@H]1CC[C@@H](n2c(=O)[nH]c3ncc(N)cc3c2=O)CC1 = 6.24
• CC(=O)Nc1ccc2[nH]c(=O)n(C3CCN(C(=O)OC(C)(C)C)C3)c(=O)c2c1 (racemic) = 4.27
• CC(=O)Nc1ccc2[nH]c(=O)n([C@H]3CCO[C@@H](C(C)(C)C)C3)c(=O)c2c1 (racemic) = 5.68
• O=C(Cn1ccnc1[N+](=O)[O-])NCc1ccccc1 = 5.71
• O=c1[nH]c2ccc(-c3ccncc3)cc2c(=O)n1CCC1CCCCC1 = 5.77
• CC[C@H]1CC[C@H](n2c(=O)[nH]c3ncc(N)cc3c2=O)CC1 = 6.47
• CC[C@H]1CC[C@H](n2c(=O)[nH]c3ncc(NC(C)=O)cc3c2=O)CC1 = 6.52
• CC(C)[C@H]1CC[C@H](n2c(=O)[nH]c3ccc(N)cc3c2=O)CC1 = 7.57

Tested on Trypanosoma cruzi, the item CC(=O)Nc1cnc2[nH]c(=O)n(CCC3CCCCC3)c(=O)c2c1 showed pEC50 equal to 5.64

Tested on Trypanosoma cruzi, the item CC(=O)Nc1ccc2[nH]c(=O)n(C3CCC(C)CC3)c(=O)c2c1 (mixture of isomers) showed pEC50 equal to 5.85

====

# Protocol summary: Kinetic aqueous solubility of compound in DMSO by nephelometric analysis
# Format: physicochemical
# Applied conditions: read-out: Kinetic_solubility
Returns one of criterion met or criterion not met; criterion met when solubility kinetic is >= 100 µM.

* CC[C@H]1CC[C@@H](n2c(=O)[nH]c3ncc(N)cc3c2=O)CC1 | criterion not met
* CCC[C@H]1CC[C@H](n2c(=O)[nH]c3ccc(NC(C)=O)cc3c2=O)CC1 | criterion not met
* CC(=O)Nc1cnc2[nH]c(=O)n([C@H]3CC[C@@H](C(C)(C)C)CC3)c(=O)c2c1 | criterion not met
* CC[C@H]1CC[C@H](n2c(=O)[nH]c3ncc(N)cc3c2=O)CC1 | criterion not met
* CC[C@H]1CC[C@H](n2c(=O)[nH]c3ccc(NC(C)=O)cc3c2=O)CC1 | criterion met

[in] Could you verify whether the entry CC(=O)Nc1ccc2[nH]c(=O)n(C3CCC(C)(C)CC3)c(=O)c2c1 shows solubility kinetic of no less than 100 µM?
[out] criterion met

[in] Could you verify whether the entry CC(=O)Nc1ccc2[nH]c(=O)n([C@H]3CC[C@H](C(C)(C)O)CC3)c(=O)c2c1 shows solubility kinetic of no less than 100 µM?
[out] criterion met

[in] Could you verify whether the entry CC[C@H]1CC[C@@H](n2c(=O)[nH]c3ncc(NC(C)=O)cc3c2=O)CC1 shows solubility kinetic of no less than 100 µM?
[out] criterion not met

[in] Could you verify whether the entry CC(=O)Nc1ccc2[nH]c(=O)n([C@H]3CC[C@@H](C(C)(C)C)CC3)c(=O)c2c1 shows solubility kinetic of no less than 100 µM?
[out] criterion not met

====

selectivity ratio listing for selected compounds.
# Protocol summary: Selectivity ratio, EC50 for cytotoxicity against rat L6 cells to EC50 for antitrypanosomal activity against Trypanosoma cruzi Tulahuen strain C2C4 trypomastigotes infected in rat L6 cells
# Assay type: toxicity, cell-based
# Applied conditions: read-out: Ratio EC50
Number, no unit, nothing else.

- CC(=O)Nc1ccc2[nH]c(=O)n([C@H]3CC[C@H](C(C)(C)C)CC3)c(=O)c2c1: 180
- CC(=O)Nc1ccc2[nH]c(=O)n(C3CCCC3)c(=O)c2c1: 15
- CC[C@H]1CC[C@H](n2c(=O)[nH]c3ncc(N)cc3c2=O)CC1: 150
- O=c1[nH]c2ccc(-c3cncnc3)cc2c(=O)n1CCC1CCCCC1: 9
- CC(C)(C)[C@H]1CC[C@@H](n2c(=O)[nH]c3ncc(N)cc3c2=O)CC1: 183

Lookup result for CC(=O)Nc1ccc2[nH]c(=O)n(CCC(C)C)c(=O)c2c1 ; measured selectivity ratio: 17

Lookup result for CC(=O)Nc1ccc2[nH]c(=O)n(-c3ccc(C(C)(C)C)cc3)c(=O)c2c1 ; measured selectivity ratio: 4

Lookup result for CC(=O)Nc1ccc2[nH]c(=O)n([C@H]3CO[C@@H](C(C)(C)C)OC3)c(=O)c2c1 ; measured selectivity ratio: 29

Lookup result for CC(=O)Nc1ccc2[nH]c(=O)n(C3CCCCCC3)c(=O)c2c1 ; measured selectivity ratio: 53

Lookup result for CC(=O)Nc1ccc2[nH]c(=O)n(C3CCCCC3)c(=O)c2c1 ; measured selectivity ratio: 17
